Molecular target: Full length human recombinant HDAC11 (Homo sapiens, UniProt Q96DB2)
Construct: Full length human recombinant HDAC6 and HDAC11 proteins were expressed in baculoviral system
Sequence (Q96DB2 whole entry): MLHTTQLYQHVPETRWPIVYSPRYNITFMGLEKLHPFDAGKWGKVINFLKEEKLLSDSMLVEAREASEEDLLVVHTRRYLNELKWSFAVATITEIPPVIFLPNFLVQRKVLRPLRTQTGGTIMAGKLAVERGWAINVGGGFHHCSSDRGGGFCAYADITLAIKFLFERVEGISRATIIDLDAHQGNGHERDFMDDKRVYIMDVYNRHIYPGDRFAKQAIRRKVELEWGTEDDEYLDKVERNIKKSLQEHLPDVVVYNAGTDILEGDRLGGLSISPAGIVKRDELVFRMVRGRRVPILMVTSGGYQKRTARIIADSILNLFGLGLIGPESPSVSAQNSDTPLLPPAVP
Assay: In vitro histone deacetylase assay, enzymatic HDAC11 (electrophoretic mobility shift assay)
Conditions: 10 nM HDAC11; 2 μM peptide substrate FAM-RHKK(tri-fluor-Ac)—NH2; 25° C.; 12 concentrations; read-out: HDAC11 Activity Range (IC50)
property.measured: IC50

Data request: Returns the measured IC50 for the input molecule. Input: Cc1ccccc1CN1CC[C@]2(CCc3ccc(C(=O)NO)cc3C2)C1=O
Data returned: ≤ 100 nM

Data request: Also, COCCn1c(N2CC[C@]3(CCc4ccc(C(=O)NO)cc4C3)C2=O)nc2ccccc21 please.
Data returned: ≤ 100 nM

Data request: Ok, now O=C(NO)c1ccc2c(c1)C[C@]1(CC2)CC(=O)N(CC2COC2)C1
Data returned: > 500 nM

Data request: Same question for CC(C)N1C[C@@]2(CCc3ccc(C(=O)NO)cc3C2)CC1=O please.
Data returned: > 500 nM

Data request: And CN1CC[C@]2(CCc3ccc(C(=O)NO)cc3C2)C1=O ?
Data returned: > 500 nM

Data request: And what about the molecule O=C(NO)c1ccc2c(c1)C[C@]1(CC2)CCN(Cc2cc(Cl)ccc2Cl)C1=O ?
Data returned: ≤ 100 nM

Data request: Would you kindly repeat that for COc1ccc(C(=O)N2CCC3(CCc4ccc(C(=O)NO)cc4C3)C2)cc1 (stereo not drawn) ?
Data returned: > 500 nM

Data request: How about O=C(NO)c1ccc2c(c1)C[C@]1(CCNC1=O)CC2 ?
Data returned: > 500 nM

Data request: What do you get for COc1ccc(CN2CCC3(CCc4ccc(C(=O)NO)cc4C3)C2)cc1 (stereo not drawn) ?
Data returned: > 500 nM
